The measured values listed here are drawn from paper PMC12416549.

- TARGET: T1, TNFR1 (Homo sapiens, UniProt P19438)
- T1 chain: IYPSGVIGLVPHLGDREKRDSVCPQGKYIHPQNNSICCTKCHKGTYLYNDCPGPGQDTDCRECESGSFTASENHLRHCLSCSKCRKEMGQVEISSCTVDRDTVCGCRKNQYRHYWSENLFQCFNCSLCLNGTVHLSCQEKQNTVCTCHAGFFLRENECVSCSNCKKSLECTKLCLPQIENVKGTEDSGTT
- PROCEDURE_TEXT: yeast display SC50
READOUT_KIND: apparent Kd (screen) (pM)
Answer with a number only, understood to be in pM.

Q: # input binder: A15L (designed binder) MTLQELLREEALRRLEAEAFRYALELLAEKFPEQKEYLLDLAEEIESQIRSLSGVDVEDVRKFLDKEWAWVKELLAEHPAELAEVEAARAARLAELRAEVEAKVAA ; wanted: its apparent Kd (screen)
Ans: 368

Q: # input binder: L93V (designed binder) MTLQELLREEALRRAEAEAFRYALELLAEKFPEQKEYLLDLAEEIESQIRSLSGVDVEDVRKFLDKEWAWVKELLAEHPAELAEVEAARAARVAELRAEVEAKVAA ; wanted: its apparent Kd (screen)
Ans: 869

Q: # input binder: K66S (designed binder) MTLQELLREEALRRAEAEAFRYALELLAEKFPEQKEYLLDLAEEIESQIRSLSGVDVEDVRKFLDSEWAWVKELLAEHPAELAEVEAARAARLAELRAEVEAKVAA ; wanted: its apparent Kd (screen)
Ans: 490

Q: # input binder: E9N (designed binder) MTLQELLRNEALRRAEAEAFRYALELLAEKFPEQKEYLLDLAEEIESQIRSLSGVDVEDVRKFLDKEWAWVKELLAEHPAELAEVEAARAARLAELRAEVEAKVAA ; wanted: its apparent Kd (screen)
Ans: 593

Q: # input binder: K103F (designed binder) MTLQELLREEALRRAEAEAFRYALELLAEKFPEQKEYLLDLAEEIESQIRSLSGVDVEDVRKFLDKEWAWVKELLAEHPAELAEVEAARAARLAELRAEVEAFVAA ; wanted: its apparent Kd (screen)
Ans: 869

Q: # input binder: E29W (designed binder) MTLQELLREEALRRAEAEAFRYALELLAWKFPEQKEYLLDLAEEIESQIRSLSGVDVEDVRKFLDKEWAWVKELLAEHPAELAEVEAARAARLAELRAEVEAKVAA ; wanted: its apparent Kd (screen)
Ans: 653

Q: # input binder: A106F (designed binder) MTLQELLREEALRRAEAEAFRYALELLAEKFPEQKEYLLDLAEEIESQIRSLSGVDVEDVRKFLDKEWAWVKELLAEHPAELAEVEAARAARLAELRAEVEAKVAF ; wanted: its apparent Kd (screen)
Ans: 718

Q: # input binder: L3S (designed binder) MTSQELLREEALRRAEAEAFRYALELLAEKFPEQKEYLLDLAEEIESQIRSLSGVDVEDVRKFLDKEWAWVKELLAEHPAELAEVEAARAARLAELRAEVEAKVAA ; wanted: its apparent Kd (screen)
Ans: 15200
